biological target: Neuronal acetylcholine receptor subunit alpha-7 (Bos taurus, UniProt P54131); assay: Displacement of [125I]alpha-bungarotoxin from bovine alpha7 nAChR expressed in HEK293 cells
Sequence (P54131 whole entry): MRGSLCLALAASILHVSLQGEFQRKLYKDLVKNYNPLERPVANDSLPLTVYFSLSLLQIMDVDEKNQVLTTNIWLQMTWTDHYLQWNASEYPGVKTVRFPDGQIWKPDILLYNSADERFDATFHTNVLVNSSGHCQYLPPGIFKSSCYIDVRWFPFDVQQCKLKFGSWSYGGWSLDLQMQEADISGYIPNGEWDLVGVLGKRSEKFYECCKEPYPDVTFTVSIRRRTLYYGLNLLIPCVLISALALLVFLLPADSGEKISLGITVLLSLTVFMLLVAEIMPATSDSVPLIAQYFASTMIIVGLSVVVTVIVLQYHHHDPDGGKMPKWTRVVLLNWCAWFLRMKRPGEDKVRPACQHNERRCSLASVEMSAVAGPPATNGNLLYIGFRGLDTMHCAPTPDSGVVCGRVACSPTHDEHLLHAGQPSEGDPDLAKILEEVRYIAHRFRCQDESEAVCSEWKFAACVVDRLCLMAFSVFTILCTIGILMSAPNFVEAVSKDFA
endpoint.name: IC50 (µM)
Please reply with the bare figure in µM and do not write the unit itself.

Exercise: # IC50 lookup, item CC1CC(=O)N(c2ccccc2C(=O)OC[C@@H]2CCCN(CCCc3ccccc3)C2)C1=O (stereo partly specified)
Key: 177

* * *

Catalogue of Activity readings, one per entry.
molecular target: Neuronal acetylcholine receptor subunit alpha-3 (Bos taurus) (UniProt Q07263); experiment: Displacement of [3H]epibatidine from bovine […] nAChR expressed in HEK293 cells at 10 uM; assay type: cell-based
Sequence (Q07263 whole entry): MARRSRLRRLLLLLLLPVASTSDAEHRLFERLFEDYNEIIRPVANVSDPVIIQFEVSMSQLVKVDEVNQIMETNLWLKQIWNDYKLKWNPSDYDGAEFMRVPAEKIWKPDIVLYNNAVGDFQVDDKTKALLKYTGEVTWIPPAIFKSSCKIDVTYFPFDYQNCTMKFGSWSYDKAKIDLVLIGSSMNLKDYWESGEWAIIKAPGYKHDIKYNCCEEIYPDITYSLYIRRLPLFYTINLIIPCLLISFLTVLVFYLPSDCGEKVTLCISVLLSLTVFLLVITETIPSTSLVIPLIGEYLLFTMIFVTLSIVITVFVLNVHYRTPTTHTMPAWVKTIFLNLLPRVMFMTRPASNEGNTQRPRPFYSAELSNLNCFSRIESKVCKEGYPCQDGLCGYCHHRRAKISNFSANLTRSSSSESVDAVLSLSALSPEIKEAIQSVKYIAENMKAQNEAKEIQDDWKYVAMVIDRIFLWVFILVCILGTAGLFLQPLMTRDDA
Please reply with the bare figure in % and do not write the unit itself.

Known Activity results, listed for orientation:
                                   compound  unit_descriptor  numeric_readout
0  CC1CC(=O)N(c2ccccc2C(=O)OC[C@@H]2C[C@H](c3ccccc3)CN(CCCc3ccccc3)C2)C1=O (some centres undefined)                %             86.8
1  CCCCCC[C@H]1C[C@@H](COC(=O)c2ccccc2N2C(=O)CC(C)C2=O)CN(CCCc2ccccc2)C1 (some centres undefined)                %              105
2  CC1CC(=O)N(c2ccccc2C(=O)OC[C@@H]2C[C@H](CCCCCO[Si](C)(C)C(C)(C)C)CN(CCCc3ccccc3)C2)C1=O (some centres undefined)                %              118

In the following, a different compound is considered.
Exercise: # Activity lookup, item CC1CC(=O)N(c2ccccc2C(=O)OC[C@@H]2C[C@H](CCc3ccccc3)CN(CCCc3ccccc3)C2)C1=O (some centres undefined)
Key: 103

Data origin, for the record: ChEMBL document CHEMBL1157154
